# System: KB
# test details: Cytotoxicity against human KB cells by sulforhodamine B assay
# Type: functional, cell-based
Each entry below lists one item and its recorded pEC50 value.
// field semantics: pEC50 = negative decimal log of concentration (mol/L)

{"columns": ["compound", "tgt", "result"],
 "data": [
  ["CCN1C[C@]2(C)CC[C@H](OC)[C@@]34C1[C@@]1(OCO[C@@]15C[C@H](OC)[C@H]1C[C@@H]3[C@@H]5[C@H]1OC)[C@@H](OC(=O)c1cc(F)c(F)c(F)c1)[C@H]24 (single isomer, unassigned)", "KB", 4.84]
]}

Turning now to a further compound:
Asked: Consider the compound shown here: CCN1C[C@]2(C)CC[C@H](OC)[C@@]34[C@@H]5C[C@H]6[C@H](OC)[C@@H]5[C@@]5(C[C@@H]6OC)OCO[C@@]5([C@@H](OC(=O)c5cccc(C(F)(F)F)c5)[C@H]23)[C@@H]14 What is its recorded pEC50?
Given back: 4.83

###

# Tested on: DU-145
# test details: Cytotoxicity against human DU145 cells by sulforhodamine B assay
# Format: functional, cell-based
pEC50: −log10 of the molar value.
quantity measured: pEC50

{"columns": ["compound", "tgt", "pEC50"],
 "data": [
  ["CCN1C[C@]2(C)CC[C@H](OC)[C@@]34[C@@H]5C[C@H]6[C@H](OC)[C@@H]5[C@@]5(C[C@@H]6OC)OCO[C@@]5([C@@H](OC(=O)/C=C/c5ccc(F)cc5)[C@H]23)[C@@H]14", "DU-145", "< 4.70"],
  ["CCN1C[C@]2(C)CC[C@H](OC)[C@@]34[C@@H]5C[C@H]6[C@H](OC)[C@@H]5[C@@]5(C[C@@H]6OC)OCO[C@@]5(C(=O)[C@H]23)[C@@H]14", "DU-145", "< 4.70"]
]}

Asked: Consider the compound shown here: CCN1C[C@]2(C)CC[C@H](OC)[C@@]34[C@@H]5C[C@H]6[C@H](OC)[C@@H]5[C@@]5(C[C@@H]6OC)OCO[C@@]5([C@@H](OC(=O)c5ccc(F)c(C)c5)[C@H]23)[C@@H]14 What is its recorded pEC50?
Given back: 4.70

Asked: Consider the compound shown here: CCN1C[C@]2(C)CC[C@H](OC)[C@@]34C1[C@@]1(OCO[C@@]15C[C@H](OC)[C@H]1C[C@@H]3[C@@H]5[C@H]1OC)[C@@H](OC(=O)c1ccc(C(=O)OC)cc1)[C@H]24 (single isomer, unassigned) What is its recorded pEC50?
Given back: < 4.70

###

Each entry below lists one item and its recorded EC50 value.
# Tested on: DU-145
# test details: Cytotoxicity against human DU145 cells by sulforhodamine B assay
# Assay type: functional, cell-based

{"columns": ["compound", "EC50"],
 "data": [
  ["CC(=O)O[C@H]1C(=O)[C@@]2(C)[C@H]([C@H](OC(=O)c3ccccc3)[C@]3(O)C[C@H](OC(=O)[C@H](O)[C@@H](NC(=O)c4ccccc4)c4ccccc4)C(C)=C1C3(C)C)[C@]1(OC(C)=O)CO[C@@H]1C[C@@H]2O [PACLITAXEL]", "0.0059 µM"]
]}

Asked: Consider the compound shown here: CCN1C[C@]2(C)CC[C@H](OC)[C@@]34[C@@H]5C[C@H]6[C@H](OC)[C@@H]5[C@@]5(C[C@@H]6OC)OCO[C@@]5([C@@H](OC(=O)c5cccc(C(F)(F)F)c5)[C@H]23)[C@@H]14 What is its recorded EC50?
Given back: 12.6 µM

Asked: Consider the compound shown here: CCN1C[C@]2(C)CC[C@H](OC)[C@@]34[C@@H]5C[C@H]6[C@H](OC)[C@@H]5[C@@]5(C[C@@H]6OC)OCO[C@@]5([C@@H](OC(=O)c5ccc(C(F)(F)F)nc5)[C@H]23)[C@@H]14 What is its recorded EC50?
Given back: > 20 µM
